SYSTEM NAME: Cytochrome P450 2C9 (Homo sapiens, UniProt P11712)
Sequence (P11712 whole entry): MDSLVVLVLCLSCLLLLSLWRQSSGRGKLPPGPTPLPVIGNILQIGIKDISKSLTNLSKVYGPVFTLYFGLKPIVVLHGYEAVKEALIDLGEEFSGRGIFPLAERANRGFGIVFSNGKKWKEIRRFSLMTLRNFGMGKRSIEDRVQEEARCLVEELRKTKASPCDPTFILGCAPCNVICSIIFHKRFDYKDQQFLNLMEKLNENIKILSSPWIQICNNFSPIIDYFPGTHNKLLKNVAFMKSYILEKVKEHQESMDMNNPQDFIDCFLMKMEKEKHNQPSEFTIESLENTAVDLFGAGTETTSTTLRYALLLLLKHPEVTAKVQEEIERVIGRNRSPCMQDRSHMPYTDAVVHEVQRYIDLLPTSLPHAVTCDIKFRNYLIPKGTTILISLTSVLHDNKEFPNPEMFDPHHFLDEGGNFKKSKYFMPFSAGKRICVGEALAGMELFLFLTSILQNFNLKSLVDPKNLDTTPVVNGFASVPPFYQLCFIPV
EXPERIMENTAL ENDPOINT: IC50

Enter measured IC50, system Cytochrome P450 2C9 (Homo sapiens, UniProt P11712), for the molecule shown: CN1C/C=C/CCOc2cccc(c2)-c2ccnc(n2)Nc2cccc(c2)C1 > 25 µM

====

ASSAY NOTES: AUC (0 to infinity) in BALB/c mouse at 5 mg/kg, iv by LC-MS/MS analysis
Format: ADME, organism-based
Design: time infinity, dose 5 mg/kg, route intravenous
APPLIED CONDITIONS: plasma
EXPERIMENTAL ENDPOINT: AUC(0-inf) (ng·h/mL)
Express it in ng·h/mL; write the number only.

Please report AUC(0-inf) for the following compound: CN1C/C=C/CCOc2cccc(c2)-c2ccnc(n2)Nc2cccc(c2)C1 [ZOTIRACICLIB] 752

====

SYSTEM NAME: Tyrosine-protein kinase JAK2 (Homo sapiens)
Sequence (O60674 whole entry): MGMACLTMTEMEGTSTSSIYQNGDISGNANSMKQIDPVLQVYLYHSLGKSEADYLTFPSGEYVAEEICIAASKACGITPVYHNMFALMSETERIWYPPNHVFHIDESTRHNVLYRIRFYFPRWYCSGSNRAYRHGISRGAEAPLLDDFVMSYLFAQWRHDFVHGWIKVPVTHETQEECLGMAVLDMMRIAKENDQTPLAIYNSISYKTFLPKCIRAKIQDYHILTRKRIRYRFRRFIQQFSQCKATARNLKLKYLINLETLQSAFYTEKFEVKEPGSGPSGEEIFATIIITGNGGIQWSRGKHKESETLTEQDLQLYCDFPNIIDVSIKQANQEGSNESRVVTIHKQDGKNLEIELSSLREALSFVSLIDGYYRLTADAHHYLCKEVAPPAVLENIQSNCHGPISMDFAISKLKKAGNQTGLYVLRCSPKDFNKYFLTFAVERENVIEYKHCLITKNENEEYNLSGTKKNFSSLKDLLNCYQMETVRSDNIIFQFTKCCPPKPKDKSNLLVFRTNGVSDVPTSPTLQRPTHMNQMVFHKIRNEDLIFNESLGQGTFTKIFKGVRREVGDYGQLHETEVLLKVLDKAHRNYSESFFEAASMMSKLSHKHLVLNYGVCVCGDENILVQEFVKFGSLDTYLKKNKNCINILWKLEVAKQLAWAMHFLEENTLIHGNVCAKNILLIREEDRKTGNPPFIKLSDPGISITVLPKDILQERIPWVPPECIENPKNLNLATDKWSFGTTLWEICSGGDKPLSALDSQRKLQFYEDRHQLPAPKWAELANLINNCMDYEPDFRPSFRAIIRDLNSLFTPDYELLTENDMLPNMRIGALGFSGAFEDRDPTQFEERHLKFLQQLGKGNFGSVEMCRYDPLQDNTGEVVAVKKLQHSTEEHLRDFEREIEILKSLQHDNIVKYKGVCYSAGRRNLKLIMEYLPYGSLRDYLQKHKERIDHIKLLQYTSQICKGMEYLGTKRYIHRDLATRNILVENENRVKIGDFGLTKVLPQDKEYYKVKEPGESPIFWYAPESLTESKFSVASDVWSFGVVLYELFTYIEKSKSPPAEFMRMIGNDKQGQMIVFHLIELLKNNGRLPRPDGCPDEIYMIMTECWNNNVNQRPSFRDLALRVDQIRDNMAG
ASSAY NOTES: Inhibition of recombinant JAK2 using poly(Glu,Ala,Tyr) as substrate after 2 hrs by luminescence assay
Known log10 IC50 of a selection of molecules
Remember, log10 of IC50, in nM.

Completed entries (count: 3):
CCS(=O)(=O)CCOc1ccc2cc1CN(C)C/C=C/CCOc1cccc(c1)-c1ccnc(n1)N2    2.04
COc1ccc2cc1CN(C)C/C=C/CCOc1cccc(c1)-c1ccnc(n1)N2    2.45
CN1C/C=C/COCc2cccc(c2)-c2ccnc(n2)Nc2cccc(c2)C1    3.23

Enter measured log10 IC50, system Tyrosine-protein kinase JAK2 (Homo sapiens), for the molecule shown: CN1C/C=C/CCOc2cccc(c2)-c2ccnc(n2)Nc2ccc(N3CCOCC3)c(c2)C1 1.69

Enter measured log10 IC50, system Tyrosine-protein kinase JAK2 (Homo sapiens), for the molecule shown: CN1C/C=C/CCOc2cccc(c2)-c2ccnc(n2)Nc2cccc(c2)C1 1.86

Enter measured log10 IC50, system Tyrosine-protein kinase JAK2 (Homo sapiens), for the molecule shown: CN1C/C=C/CCOc2cccc(c2)-c2ccnc(n2)Nc2cc(cc(NC(=O)N3CCOCC3)c2)C1 1.64

====

SYSTEM NAME: Cyclin-dependent kinase 2/cyclin A (Homo sapiens)
ASSAY NOTES: Inhibition of recombinant Cdk2/cyclin A using RbING as substrate after 2 hrs by luminescence assay
pIC50: −log10 of the molar value.
Label F if pIC50 falls below 7; label T in every other case.

For orientation, consider the following solved cases.
CN1C/C=C/CNC(=O)c2cccc(c2)-c2ccnc(n2)Nc2cccc(c2)C1    F
CN1C/C=C/CCOc2cccc(c2)-c2ccnc(n2)Nc2ccc(Cl)c(c2)C1    T
C1=C/CNCc2cccc(c2)Nc2nccc(n2)-c2cccc(c2)OCC/1    T

Could you verify whether the entry CC(C)CN1C/C=C/CCOc2cccc(c2)-c2ccnc(n2)Nc2cccc(c2)C1 shows pIC50 of no less than 7? F

Could you verify whether the entry CN1C/C=C/CCOc2cccc(c2)-c2ccnc(n2)Nc2cc(N)cc(c2)C1 shows pIC50 of no less than 7? T

Could you verify whether the entry CC(C)NCC(=O)N1C/C=C/CCOc2cccc(c2)-c2ccnc(n2)Nc2cccc(c2)C1 shows pIC50 of no less than 7? F

====

SYSTEM NAME: Tyrosine-protein kinase JAK2 (Homo sapiens)
ASSAY NOTES: Inhibition of recombinant JAK2 using poly(Glu,Ala,Tyr) as substrate after 2 hrs by luminescence assay
Known pIC50 of a selection of compounds
// pIC50 here means minus log10 of the molar concentration (mol/L)

Completed entries (count: 4):
CN1CCN(CCOc2ccc3cc2CN(C)C/C=C/CCOc2cccc(c2)-c2ccnc(n2)N3)CC1    6.66
C1=C/CN(CC2CC2)Cc2cccc(c2)Nc2nccc(n2)-c2cccc(c2)OCC/1    5.82
C1=C/CN(Cc2ccccn2)Cc2cccc(c2)Nc2nccc(n2)-c2cccc(c2)OCC/1    5.87
CCS(=O)(=O)c1ccc2cc1CN(C)C/C=C/CCOc1cccc(c1)-c1ccnc(n1)N2    7.00

Let us move to another entry and its pIC50.
Please report pIC50 for the following compound: N#CCN1C/C=C/CCOc2cccc(c2)-c2ccnc(n2)Nc2ccc(OCCN3CCCC3)c(c2)C1 6.82
